TEST SYSTEM: Menin (Homo sapiens)
PROCEDURE SUMMARY: Confirmation of Inhibitors Targeting the Menin-MLL Interaction in MLL Related Leukemias: Confirmation in an HTRF (commercial TR-FRET) Assay using His-tagged menin and biotin-labeled MLL peptide
TEST CONTEXT: His-menin / biotin-MLL peptide binding; series mostly up to 126 µM
Results filed as inconclusive are left out. The source made the active and inactive calls. Calls come from the whole dose curve; as a rule, active = well fitted inhibition curve with a large enough effect; inconclusive = small, poorly fitted or top-dose-only effect, or effect the other way; inactive = flat fitted curve, though single readings scatter.
READOUT LABEL: outcome

Worked cases, outcome given:
MOLECULE: O=C(O)CN1C(=O)CN=C(c2ccccn2)c2cc(Cl)ccc21
outcome: inactive
//
MOLECULE: C[C@@H]1CC[C@@]2(NC1)O[C@H]1C[C@H]3[C@@H]4CC=C5C[C@@H](O)CC[C@]5(C)[C@H]4CC[C@]3(C)[C@H]1[C@@H]2C
outcome: inactive
//
MOLECULE: O=c1oc2ccccc2c(O)c1C(c1ccccn1)c1c(O)c2ccccc2oc1=O
outcome: inactive
//
MOLECULE: COc1cc(/C=N/n2cnnc2)ccc1OC(=O)N(C)C
outcome: inactive

Report outcome for each item below.
1. CC[C@]12C=CCN3CC[C@@]4(c5ccc(OC)cc5N(C)[C@H]4[C@@](O)(C(=O)OC)[C@@H]1OC(C)=O)C32 (some centres not stated)
2. CCCCn1c(=O)c(C(=O)Nc2ccsc2C(=O)OC)c(O)c2ccccc21
3. O=C(Nc1ccc2ccccc2c1)c1nn(C23CC4CC(CC(C4)C2)C3)cc1Br
4. CCOC(=O)Cc1csc(NC(=O)c2c(O)c3ccccc3n(CCC(C)C)c2=O)n1
5. C[N+](C)(C)CC#CCN1CCCC1=O
6. CCOP(=O)(OCC)C(NC(=O)c1ccccc1C)C(Cl)(Cl)Cl (configuration not stated)
7. OC12C3C4CC5C6C4C1C6C(C53)N2CCc1cccc(F)c1 (configuration not stated)

**A:**
1. inactive
2. inactive
3. inactive
4. inactive
5. inactive
6. inactive
7. inactive

**Q:** Given O=C1NC(=O)C(=Cc2ccc3ccccc3c2)C(=O)N1 , state its recorded outcome.
**A:** inactive
